Source listed as patent US11999727B2.

biological target: PRMT5 (Homo sapiens, UniProt O14744); construct: purchased Viva (custom protein); assay: PRMT5 biochemical IC50 assay with MTA as cofactor; conditions: PRMT5, MTA as cofactor; read-out: MTA IC50
Sequence (O14744 whole entry): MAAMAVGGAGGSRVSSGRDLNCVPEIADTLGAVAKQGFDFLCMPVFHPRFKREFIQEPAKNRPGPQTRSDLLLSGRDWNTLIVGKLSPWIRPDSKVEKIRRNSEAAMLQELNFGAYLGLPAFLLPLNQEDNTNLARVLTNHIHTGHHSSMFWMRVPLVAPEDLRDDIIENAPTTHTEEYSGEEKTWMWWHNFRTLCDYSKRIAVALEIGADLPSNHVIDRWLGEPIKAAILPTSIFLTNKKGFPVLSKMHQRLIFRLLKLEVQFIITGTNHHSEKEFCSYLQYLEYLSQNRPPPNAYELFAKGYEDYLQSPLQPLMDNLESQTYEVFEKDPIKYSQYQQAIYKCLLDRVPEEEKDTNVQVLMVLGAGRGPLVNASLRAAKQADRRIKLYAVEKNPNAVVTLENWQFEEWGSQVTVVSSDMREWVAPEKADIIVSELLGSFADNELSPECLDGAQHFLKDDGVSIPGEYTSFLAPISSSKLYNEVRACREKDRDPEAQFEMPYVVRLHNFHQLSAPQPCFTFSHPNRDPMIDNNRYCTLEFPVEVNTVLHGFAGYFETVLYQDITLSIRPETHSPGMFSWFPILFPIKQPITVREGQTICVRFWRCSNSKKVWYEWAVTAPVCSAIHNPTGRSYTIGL
Sequence (Q9BQA1 whole entry partner): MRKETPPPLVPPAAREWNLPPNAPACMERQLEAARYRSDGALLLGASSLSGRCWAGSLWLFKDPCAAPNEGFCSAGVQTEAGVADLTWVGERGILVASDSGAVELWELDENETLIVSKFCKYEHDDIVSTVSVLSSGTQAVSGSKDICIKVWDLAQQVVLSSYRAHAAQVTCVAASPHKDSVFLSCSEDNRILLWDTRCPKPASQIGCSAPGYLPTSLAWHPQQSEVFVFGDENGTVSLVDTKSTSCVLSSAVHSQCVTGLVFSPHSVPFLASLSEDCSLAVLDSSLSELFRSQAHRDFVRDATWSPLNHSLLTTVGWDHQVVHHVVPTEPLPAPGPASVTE
ASSAY ENDPOINT: IC50

Use these answered entries as a reference point.
| COMPOUND | IC50 |
| --- | --- |
| Cc1cc([C@@H]2CC[C@@H](C)CN2C(=O)C(=O)Nc2cncc(C(N)=O)c2)ccc1OC1CCOC1 (mixture of isomers) | < 50 nM |
| Cc1cc(NC(=O)C(=O)N2C[C@@H](C)CC[C@@H]2c2ccc(-c3cn[nH]c3)cc2)cnc1N (single isomer, unassigned) | > 500 nM |

response.value for COc1ncc(NC(=O)C(=O)N2C[C@H](C)[C@H](OC)C[C@H]2c2ccc3scnc3c2)cc1C(N)=O (single isomer, unassigned) (field: IC50) = < 50 nM

# IC50 of CNc1nc2cc([C@@H]3CC[C@@H](C)CN3C(=O)C(=O)Nc3cnc(C)c(C)c3)ccc2s1 (racemic) = 50 to 500 nM

In plain terms, Cc1nc2cc([C@H]3CC[C@H](C)CN3C(=O)C(=O)Nc3cnc(N)c(C4CC4)c3)ccc2s1 (single isomer, unassigned) has a documented IC50 of < 50 nM

The compound listed as CC1(C)CCC[C@H]2CN(C(=O)C(=O)Nc3cncc(C(N)=O)c3)CC[C@@H]21 (single isomer, unassigned) shows IC50 equal to 50 to 500 nM

IC50 in this record for CCc1cc(NC(=O)C(=O)N2C[C@@H](C)CC[C@@H]2c2ccc3sc(C4CCN(CCF)CC4)nc3c2)cnc1N : < 50 nM

The compound Cn1nccc1C1CCCCN1C(=O)C(=O)Nc1cncc(C(N)=O)c1 (single isomer, unassigned) [Compound 59] showed IC50 equal to 50 to 500 nM

# IC50 (compound: Cc1cncc(NC(=O)C(=O)N2C[C@@H](C)CC[C@@H]2c2cccc(C)c2)c1 (single isomer, unassigned) ) is > 500 nM

Sample C[C@@H]1CC[C@@H](C2CCC(F)(F)CC2)N(C(=O)C(=O)Nc2cncc(C(N)=O)c2)C1 (single isomer, unassigned) ; IC50 observed: > 500 nM

GET /value?item= CCc1cc(NC(=O)C(=O)N2C[C@@H](C)CC[C@@H]2c2cccc(Oc3cccnc3)c2)cnc1N &field=IC50 returns < 50 nM

Entry C[C@@H]1CC[C@@H](c2ccncc2)N(C(=O)C(=O)Nc2cncc(C(N)=O)c2)C1 (single isomer, unassigned) ; IC50 = > 500 nM

---

system: HAP1 MTAP-deleted cell line; assay: SDMA in-cell western assay, HAP1 MTAP-deleted; assay type: cell-based; settings: Homo sapiens, HAP1, SDMA in-cell western, HAP1 MTAP-deleted; read-out: HAP 1 MTAP deleted IC50
pIC50: −log10 of the molar value.
pIC50 values, listed per item

Sample answers from the record:
| COMPOUND | VALUE OBSERVED |
| --- | --- |
| CCc1cc(NC(=O)C(=O)N2C[C@@H](C)CC[C@@H]2c2ccc3sc(-c4ccnn4C)nc3c2)cnc1N | > 7.00 |
| CCc1cc(NC(=O)C(=O)N2C[C@@H](C)CC[C@@H]2c2ccc(N3CCOC4(CN(C)C4)C3)cc2)cnc1N (single isomer, unassigned) | > 7.00 |
| Cc1ccc([C@@H]2CC[C@@H](C)CN2C(=O)C(=O)Nc2cncc(C(N)=O)c2)cc1O (racemic) | > 7.00 |

Sure, the documented pIC50 for Cc1cc(NC(=O)C(=O)N2C[C@H](C)CC[C@H]2c2ccc3sc(N)nc3c2)cnc1C (racemic) is > 7.00

Short answer for Cc1cc(NC(=O)C(=O)N2C[C@@H](C)CC[C@@H]2c2ccc3nn(C)cc3c2)cnc1N (single isomer, unassigned) : pIC50 was 6.00 to 7.00

Query [2H]c1c([2H])c([C@@]2([2H])CC[C@H](C)CN2C(=O)C(=O)Nc2cncc(C(N)=O)c2)c([2H])c([2H])c1F (racemic) yields pIC50 of 6.00 to 7.00
